# TARGET SYSTEM: Smoothened (SMO) (Mus musculus, UniProt P56726)
# Construct: C3H10T1/2 cells (ATCC #CCL-226) were split and seeded; endogenous in cells; host or cells: C3H10T1/2 (ATCC #CCL-226)
# Sequence (P56726 33-793): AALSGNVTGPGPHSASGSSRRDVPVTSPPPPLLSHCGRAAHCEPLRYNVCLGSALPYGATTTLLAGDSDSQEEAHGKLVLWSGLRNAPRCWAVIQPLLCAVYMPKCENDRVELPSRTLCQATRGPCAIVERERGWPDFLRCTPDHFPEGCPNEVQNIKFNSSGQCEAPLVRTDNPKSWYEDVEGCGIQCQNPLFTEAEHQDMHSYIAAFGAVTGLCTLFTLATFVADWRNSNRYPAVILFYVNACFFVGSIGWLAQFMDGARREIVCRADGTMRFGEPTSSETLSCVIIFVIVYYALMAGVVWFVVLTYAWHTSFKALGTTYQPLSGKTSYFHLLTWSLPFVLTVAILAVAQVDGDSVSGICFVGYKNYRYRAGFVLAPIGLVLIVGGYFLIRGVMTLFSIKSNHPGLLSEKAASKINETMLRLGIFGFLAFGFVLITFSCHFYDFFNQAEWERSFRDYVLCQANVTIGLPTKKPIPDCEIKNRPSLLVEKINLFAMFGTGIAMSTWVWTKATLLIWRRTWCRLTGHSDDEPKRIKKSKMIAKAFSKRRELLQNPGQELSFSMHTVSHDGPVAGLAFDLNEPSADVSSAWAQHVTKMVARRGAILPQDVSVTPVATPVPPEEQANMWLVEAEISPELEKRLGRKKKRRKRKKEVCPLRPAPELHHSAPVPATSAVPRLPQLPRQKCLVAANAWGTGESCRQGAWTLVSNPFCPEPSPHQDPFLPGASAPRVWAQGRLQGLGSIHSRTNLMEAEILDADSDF
# ASSAY TEXT: Smoothened (SMO)/Sonic Hedgehog (SHh) Transient Transcriptional Activation Assay (Gli-luciferase reporter in C3H10T1/2 cells)
# Assay type: cell-based, murine
# MEASUREMENT SETUP: C3H 10T1/2, 2 μM compound; transfected C3H10T1/2 cells, recombinant human SHh 250 ng/mL, 20 hours, luciferase readout; read-out: SMO CELL % INHIBITION @ 2 μM
Counter-ions that a name gives are not always drawn.
MEASURED PROPERTY: inhibition at 2 µM
Please answer in the form of a number followed by its unit of measurement.

Please report the measured inhibition at 2 µM for Cc1ccc(NC(=O)N[C@@H]2CCN(C)[C@@H](c3nc4cc(C(F)(F)F)ccc4[nH]3)C2)cn1 [Example 128, hydrochloride]
102%

More entries:
Give recorded inhibition at 2 µM. O=C(Nc1ccc(Cl)c(C(F)(F)F)c1)N[C@@H]1CN[C@H](c2nc3ccc(F)cc3[nH]2)C1
84.2%

Identify measured inhibition at 2 µM corresponding to Cc1ccc(NC(=O)N[C@@H]2CCN(C)[C@@H](c3nc4ccc(Cl)cc4[nH]3)C2)cn1 [Example 126, hydrochloride]
110%

Give reported inhibition at 2 µM value for Cc1cncc(NC(=O)N[C@@H]2CCN(C)[C@@H](c3nc4ccccc4[nH]3)C2)c1 [Example 69, hydrochloride]
102%

Consider the compound Cc1nc(C(F)(F)F)ccc1C(=O)N[C@@H]1CCN(C)[C@@H](c2nc3ccccc3[nH]2)C1 [Example 91, hydrochloride] . State its measured inhibition at 2 µM.
87.9%
